From: patent US20160297884A1

Molecular target: T1, Human BCMA (human, UniProt Q02223 1-54, limits assumed)
T1 construct: Soluble analyte in SPR; construct not described; also called huBCMA; B-cell maturation antigen
T1 sequence (looked up): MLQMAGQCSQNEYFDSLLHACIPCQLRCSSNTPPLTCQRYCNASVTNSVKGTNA
Assay: SPR, IgG immobilised, 25 C
attribute measured: kon (M⁻¹ s⁻¹)
All answers are understood in M⁻¹ s⁻¹, so give the number only.

Worked examples, 5 binders total:
binder	unit abbrev	kon
L1.LGF/L3.KW/H3.AQ (antibody, V domains shown, IgG) VH: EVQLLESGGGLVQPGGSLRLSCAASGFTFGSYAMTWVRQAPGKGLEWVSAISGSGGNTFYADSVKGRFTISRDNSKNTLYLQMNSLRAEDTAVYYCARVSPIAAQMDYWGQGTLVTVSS VL: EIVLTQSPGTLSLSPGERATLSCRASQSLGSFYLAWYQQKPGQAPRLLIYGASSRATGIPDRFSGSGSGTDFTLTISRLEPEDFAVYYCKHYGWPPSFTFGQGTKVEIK	M⁻¹ s⁻¹	524000
L1.LGF/L3.KW/H3.AP (antibody, V domains shown, IgG) VH: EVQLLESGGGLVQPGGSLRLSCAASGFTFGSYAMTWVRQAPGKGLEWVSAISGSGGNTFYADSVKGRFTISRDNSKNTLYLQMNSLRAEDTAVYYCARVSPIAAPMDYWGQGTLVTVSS VL: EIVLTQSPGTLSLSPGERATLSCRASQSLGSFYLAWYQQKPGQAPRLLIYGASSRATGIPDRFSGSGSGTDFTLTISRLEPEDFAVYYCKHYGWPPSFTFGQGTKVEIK	M⁻¹ s⁻¹	928000
L1.GDF/L3.NY/H3.AP (antibody, V domains shown, IgG) VH: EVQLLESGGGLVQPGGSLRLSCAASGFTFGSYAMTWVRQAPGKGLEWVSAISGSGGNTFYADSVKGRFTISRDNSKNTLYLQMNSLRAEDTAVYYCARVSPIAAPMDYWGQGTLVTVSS VL: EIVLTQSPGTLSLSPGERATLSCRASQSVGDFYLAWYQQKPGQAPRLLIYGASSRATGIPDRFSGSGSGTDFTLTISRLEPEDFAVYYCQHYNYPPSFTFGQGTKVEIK	M⁻¹ s⁻¹	1.41e+06
L1.LGF/L3.PY/H3.AP (antibody, V domains shown, IgG) VH: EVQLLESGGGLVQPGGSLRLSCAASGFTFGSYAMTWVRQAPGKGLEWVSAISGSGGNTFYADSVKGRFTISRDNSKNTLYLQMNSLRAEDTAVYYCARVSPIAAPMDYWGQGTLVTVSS VL: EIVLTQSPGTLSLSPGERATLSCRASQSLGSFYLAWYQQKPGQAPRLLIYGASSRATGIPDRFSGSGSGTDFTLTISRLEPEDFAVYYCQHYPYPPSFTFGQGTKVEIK	M⁻¹ s⁻¹	457000
L3.NY/P6E01 (antibody, V domains shown, IgG) VH: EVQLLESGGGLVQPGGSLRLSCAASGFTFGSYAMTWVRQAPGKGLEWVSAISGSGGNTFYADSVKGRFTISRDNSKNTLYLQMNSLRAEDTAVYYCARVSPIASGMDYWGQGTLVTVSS VL: EIVLTQSPGTLSLSPGERATLSCRASQSVSSSYLAWYQQKPGQAPRLLIYGASSRATGIPDRFSGSGSGTDFTLTISRLEPEDFAVYYCQHYNYPPSFTFGQGTKVEIK	M⁻¹ s⁻¹	876000

Task: What kon value was documented for this binder, L1.GDF/L3.KW/H3.AL (antibody, V domains shown, IgG) VH: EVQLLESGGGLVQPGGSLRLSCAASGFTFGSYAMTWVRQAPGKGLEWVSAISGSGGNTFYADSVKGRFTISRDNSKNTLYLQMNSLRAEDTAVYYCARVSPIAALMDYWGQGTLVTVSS VL: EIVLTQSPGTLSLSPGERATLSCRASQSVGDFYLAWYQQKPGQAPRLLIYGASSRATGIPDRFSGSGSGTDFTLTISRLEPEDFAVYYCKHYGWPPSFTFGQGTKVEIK ?
Result: 445000

Task: # get_value(readout='kon', item= L1.LGF/L3.NY/H3.AQ (antibody, V domains shown, IgG) VH: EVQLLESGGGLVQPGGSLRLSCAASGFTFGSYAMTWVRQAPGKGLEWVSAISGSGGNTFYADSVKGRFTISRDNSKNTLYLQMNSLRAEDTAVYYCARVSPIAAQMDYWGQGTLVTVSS VL: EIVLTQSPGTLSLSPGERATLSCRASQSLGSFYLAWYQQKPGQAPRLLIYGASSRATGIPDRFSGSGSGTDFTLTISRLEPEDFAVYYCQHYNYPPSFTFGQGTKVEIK )
Result: 666000

Task: Look up kon: L1.GDF/L3.PY/H3.AQ (antibody, V domains shown, IgG) VH: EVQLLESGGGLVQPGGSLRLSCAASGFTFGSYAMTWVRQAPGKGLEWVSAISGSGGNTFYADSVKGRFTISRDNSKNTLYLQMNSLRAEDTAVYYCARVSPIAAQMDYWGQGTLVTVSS VL: EIVLTQSPGTLSLSPGERATLSCRASQSVGDFYLAWYQQKPGQAPRLLIYGASSRATGIPDRFSGSGSGTDFTLTISRLEPEDFAVYYCQHYPYPPSFTFGQGTKVEIK
Result: 1.42e+06

Task: Which kon is listed for L1.GDF/L3.NY/P6E01 (antibody, V domains shown, IgG) VH: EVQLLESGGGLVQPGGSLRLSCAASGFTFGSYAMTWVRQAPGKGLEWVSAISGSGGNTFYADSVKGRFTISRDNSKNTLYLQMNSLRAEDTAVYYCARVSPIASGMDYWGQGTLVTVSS VL: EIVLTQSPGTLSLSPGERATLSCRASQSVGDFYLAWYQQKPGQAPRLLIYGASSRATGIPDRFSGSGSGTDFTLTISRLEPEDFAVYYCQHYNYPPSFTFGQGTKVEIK ?
Result: 1.6e+06

Task: kon for L1.LGF/L3.KW/P6E01 (antibody, V domains shown, IgG) VH: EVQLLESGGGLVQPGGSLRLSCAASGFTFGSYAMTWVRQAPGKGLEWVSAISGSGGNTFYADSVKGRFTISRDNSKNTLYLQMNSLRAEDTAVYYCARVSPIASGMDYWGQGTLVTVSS VL: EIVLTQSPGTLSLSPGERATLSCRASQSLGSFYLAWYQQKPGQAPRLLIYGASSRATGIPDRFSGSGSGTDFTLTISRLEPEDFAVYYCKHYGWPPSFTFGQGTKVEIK ?
Result: 831000
